tested on: Plasmodium falciparum; test: GSK_TCMDC: Inhibition of Plasmodium falciparum Dd2 in whole red blood cells, using parasite LDH activity as an index of growth. Test compounds present at 2uM; assay type: functional
Kindly note that classification relies on Inhibition with these boundaries: lower (below 30%), middle (30% to below 80%), upper (80% or more)

{"columns": ["compound", "experimentalTarget", "label"],
 "data": [
  ["Cc1cc(NCCCCCCCCNc2cc(C)nc3ccccc23)c2ccccc2n1.Cl", "Plasmodium falciparum", "lower"],
  ["Cc1cc(NC(=O)c2cc(S(=O)(=O)N3CCCCC3)ccc2C)no1", "Plasmodium falciparum", "lower"],
  ["FC(F)(F)c1ccc2[nH]c(-c3cccc(-c4ccc(CNCc5cnn(-c6ccccc6)n5)cc4)c3)nc2c1.O=C(O)C(F)(F)F", "Plasmodium falciparum", "middle"],
  ["OC(COc1ccccc1-c1nc2ccccc2o1)CN1CCCN(CCc2ccccc2)CC1 (centres undefined)", "Plasmodium falciparum", "lower"],
  ["CCC(CC)(CCC#N)CN(C[C@@H](O)[C@H](Cc1ccccc1)NC(=O)OC(C)(C)C)S(=O)(=O)c1ccc(OC)cc1", "Plasmodium falciparum", "middle"]
]}

Band assignment needed for CCN(CC)/C(=N/C(=N)Nc1ccc(C)cc1)NCCCCCCN/C(=N\C(=N)Nc1ccc(C)cc1)N(CC)CC please.
upper

# classify by Inhibition band: Cc1ccc(C(=O)Nc2ccc(C)c(OC3CCN(Cc4ccco4)C3)c2)cc1.O=C(O)C(F)(F)F (centres undefined)
middle

State the class of the compound shown: COc1ccc(C=Cc2cc(=N)c3ccccc3[nH]2)cc1Br
upper

---

test system: HepG2; test: GSK_TCMDC: Percent inhibition of human HepG2 cell line. Test compounds present at 10uM.; assay type: functional
measuredQuantity: Inhibition (%)
Report only the number, with the unit % understood.

{"columns": ["compound", "experimentalTarget", "Inhibition (%)"],
 "data": [
  ["O=C(NCc1cccc(CN2CCOCC2)c1)c1cc(Br)cc(N2CCN(c3ccncc3)CC2)c1.O=C(O)C(F)(F)F", "HepG2", 25]
]}

Fill blank: measured Inhibition of the compound CCCNCc1ccc(-c2ccc(CN(CCOC)C(=O)CCCOCc3ccccc3)cc2)nc1.O=C(O)C(F)(F)F is ____.
0

Entry O=C(Nc1cc(=O)[nH]c2nc(-c3ccccc3)nn12)C1CCCCC1 has what Inhibition?
0

Consider the compound Cc1cc(NCCc2ccccc2)nc(NC(=N)Nc2cccc(F)c2)n1 and give its measured Inhibition.
0

Returns the measured Inhibition for the input compound. Input: Cc1nc(C)c(CC(=O)Nc2cccc(-c3cccc(-c4nc5cc(C(F)(F)F)ccc5[nH]4)c3)c2)s1
49

For the compound COc1ccc(CCN(C)CCOc2ccc(NC(=O)c3cccc4cc5ccccc5nc34)cc2)cc1OC , what Inhibition is on record?
37

If you can, please state the reported Inhibition value of Cc1ccc(N2C(=O)C3C(C2=O)C2(c4ccccc4)C(=O)C3(c3ccccc3)C(c3ccccc3)=C2c2ccccc2)c(C)c1 (centres undefined) .
3

Could you tell me which Inhibition is on file for CCN(CC)CCNC(=O)c1ccc(NC(=O)c2ccc(-c3cc(NC(=O)CC4CCCC4)ccc3C)cc2)cc1 ?
12

// Inhibition lookup, key: Fc1cccc(-c2ccc3c(c2)CC(NCc2c[nH]c4cnccc24)C3)c1 (centres undefined)
24

---

test system: Plasmodium falciparum; test: GSK_TCMDC: Inhibition of Plasmodium falciparum Dd2 in whole red blood cells, using parasite LDH activity as an index of growth. Test compounds present at 2uM; assay type: functional
In this section, each of the molecules is paired with its reported Inhibition.
Response body: numeric value in %, unit text excluded.

Could you share which Inhibition value was measured for CSc1ccc(CN2CCC(CNC(=O)c3cc(-c4ccccc4F)cs3)C2)cc1.O=C(O)C(F)(F)F (stereo not drawn) ?
13

---

tested on: HepG2; experiment: GSK_TCMDC: Percent inhibition of human HepG2 cell line. Test compounds present at 10uM.; format: functional
measuredQuantity: Inhibition (%)
Write the number in % without appending the unit.

# example entries with known answers
{"columns": ["compound", "Inhibition / %"],
 "data": [
  ["O=C(/C=C/c1ccc([N+](=O)[O-])cc1)N1CCC(CCN2CCC(c3c[nH]c4ccccc34)CC2)CC1", 60],
  ["CC(C)(C)c1ccc(CN2CCC(CNC(=O)c3cc(-c4ccccc4C(F)(F)F)cs3)C2)cc1.O=C(O)C(F)(F)F (stereo not drawn)", 61],
  ["CC(C)(C)C(=O)Nc1c(-c2cc(=O)oc3cc4c(cc23)CCC4)oc2ccccc12", 0],
  ["CN(C)CCN(C)Cc1ccc(-c2cccc(NC(=O)c3cccc(C#N)c3)c2)cc1.O=C(O)C(F)(F)F", 23]
]}

Would you mind telling me what Inhibition value was observed for O=C(Nc1ccc2c(c1)OCO2)c1cc(-c2cccnc2)cnc1NCc1ccc2c(c1)OCO2 ?
2

---

test system: HepG2; test: GSK_TCMDC: Percent inhibition of human HepG2 cell line. Test compounds present at 10uM.; format: functional
Would you please tag the item 1.0 when its Inhibition is 20% or above, and 0.0 when it is below?

{"columns": ["compound", "label"],
 "data": [
  ["COc1cccc(C2CCN(CCN3CCC(NC(=O)c4ccc(-c5ccc(Cl)cc5)cc4)CC3)CC2)c1", 1.0],
  ["CN(C)Cc1ccc2cc(NC(=O)c3ccc(-c4ccc(Cl)cc4)cc3)ccc2n1.O=C(O)C(F)(F)F", 1.0],
  ["Cc1cc(C(=O)CN2C(=O)NC(C)(c3cccc4ccccc34)C2=O)c(C)n1Cc1ccco1 (stereo not drawn)", 0.0],
  ["CC(Sc1nc(-c2ccccc2)c(-c2ccccc2)o1)C(=O)NC1CC1 (stereo not drawn)", 0.0],
  ["COc1ccc(C2CC(c3cccs3)=NN2C(=O)CNc2ccccc2F)cc1OC (stereo not drawn)", 0.0],
  ["O=C(Nc1cccc(-c2ccc(CN3CCNCC3)cc2)c1)c1cccc(Cl)c1.O=C(O)C(F)(F)F", 1.0],
  ["O=C(NCc1ccccc1)NC1CCN(c2ccnc3cc(Cl)ccc23)C1.O=C(O)C(F)(F)F (stereo not drawn)", 0.0],
  ["COC(=O)C1=C(C)NC2=C(C(=O)CC(c3ccc(OC)c(OC)c3)C2)C1c1cccc(O)c1 (stereo not drawn)", 0.0]
]}

Is Inhibition for O=C(Nc1ccc(-c2cccc(-c3nc4cc(C(F)(F)F)ccc4[nH]3)c2)cc1)c1ccoc1 at or above 20%?
1.0

Assess whether reported Inhibition for O=C(NC1CC1)C1CCN(Cc2cc3ccccc3n2Cc2ccc(Cl)cc2)CC1 sits at 20% or higher.
0.0

API: above_or_equal(metric=Inhibition, cutoff=20%) for item CC1(C)[C@H]2CC[C@@H](CNc3nc(NCC(=O)Nc4ccc5ccccc5c4)nc(N4CCC(N5CCCC5)CC4)n3)[C@@H]1C2
0.0

---

test system: Plasmodium falciparum; test: GSK_TCMDC: Inhibition of Plasmodium falciparum Dd2 in whole red blood cells, using parasite LDH activity as an index of growth. Test compounds present at 2uM; format: functional
Inhibition strictly under 70% means True; at 70% or over means False.

Worked examples, 5 molecules total:
{"columns": ["molecule", "label"],
 "data": [
  ["Cn1cnc2c(Nc3ccncc3)nc(-c3ccc(OC(F)(F)F)cc3)nc21.O=C(O)C(F)(F)F", "True"],
  ["Br.COc1ccc2c(c1)CCCC2C(C)NCC(O)c1cccc(C(F)(F)F)c1 (stereo not drawn)", "False"],
  ["CCCc1cn2c3c(cc(C(=O)N[C@@H](Cc4ccccc4)[C@H](O)CNC4CCCCC4)cc13)N(CC)S(=O)(=O)CC2.O=CO", "False"],
  ["CCOc1ccc2[nH]c(C)cc(=NN=Cc3ccncc3)c2c1", "False"],
  ["CC(=O)Nc1ccc(OCCCN(Cc2ccccc2C(F)(F)F)c2ccc(C(F)(F)F)c(C#N)c2)c(Cl)c1", "True"]
]}

Dear reviewer, please state whether CN1CCC(NC(=O)c2cccc(Nc3cc(Nc4cccc(Br)c4)ncn3)c2)CC1 has Inhibition strictly beneath 70%.
True

Item CN(C)S(=O)(=O)c1ccc(N2CCN(CCC3(c4cccc(F)c4)CCN(C(=O)C(C)(C)C)CC3)CC2)c2nonc12 : Inhibition beneath 70%, strictly?
False

Answer whether the molecule CCS(=O)(=O)N1CCN(c2nc(-c3ccccc3)nc(COC)c2Cc2ccccc2F)CC1 has Inhibition strictly less than 70%
True

---

system: Plasmodium falciparum; assay: GSK_TCMDC: Inhibition of Plasmodium falciparum 3D7 in whole red blood cells, using parasite LDH activity as an index of growth. Test compounds present at 2uM; type: functional
measuredQuantity: Inhibition (%)
Give your result in % as a bare value.

{"columns": ["compound", "experimentalTarget", "unitOfMeasure", "Inhibition"],
 "data": [
  ["CCc1c(C)nc(-n2nc(C)cc2NC(=O)c2cccc3ccccc23)[nH]c1=O", "Plasmodium falciparum", "%", 98],
  ["O=C(NCc1ccc(Cl)c(Cl)c1)c1ccc(C2CCCN(Cc3ccc4[nH]cnc4c3)C2)cc1 (stereo not drawn)", "Plasmodium falciparum", "%", 100],
  ["CCCCCN1CCCC(CNS(=O)(=O)c2ccc(C(=O)Nc3ccc(C(F)(F)F)cc3)cc2)C1.O=C(O)C(F)(F)F (stereo not drawn)", "Plasmodium falciparum", "%", 94]
]}

Value lookup for Inhibition; key = O=C(/C=C/c1ccc(I)cc1)NCCCCCN1CCC(c2c[nH]c3ccc(O)cc23)CC1
97

Query (compound): Cc1nc2c(=O)sc3ccccc3c2n1Cc1ccccc1 ; field requested: Inhibition
95

I'd like to know its Inhibition. The compound in question is O=C(NCc1cc2c(cc1Cl)OCO2)c1ccc(CNC2CCN(Cc3ccccc3)CC2)cc1.O=C(O)C(F)(F)F
100

For CNC(=O)Cc1ccc(C(=O)Nc2cccc(-c3cccc(-c4nc5cccc(C)c5[nH]4)c3)c2)cc1 , what is its reported Inhibition?
96

What value of Inhibition has been recorded for this entry: CN(Cc1ccc(NC(=O)NC2CCN(C(=O)/C=C/c3ccc(Cl)c(Cl)c3)CC2)cc1)C1CCOCC1
96

Attribution: ChEMBL document CHEMBL1157539
